Biological target: JAK3 enzyme (Homo sapiens)
Sequence (P52333 1-1124): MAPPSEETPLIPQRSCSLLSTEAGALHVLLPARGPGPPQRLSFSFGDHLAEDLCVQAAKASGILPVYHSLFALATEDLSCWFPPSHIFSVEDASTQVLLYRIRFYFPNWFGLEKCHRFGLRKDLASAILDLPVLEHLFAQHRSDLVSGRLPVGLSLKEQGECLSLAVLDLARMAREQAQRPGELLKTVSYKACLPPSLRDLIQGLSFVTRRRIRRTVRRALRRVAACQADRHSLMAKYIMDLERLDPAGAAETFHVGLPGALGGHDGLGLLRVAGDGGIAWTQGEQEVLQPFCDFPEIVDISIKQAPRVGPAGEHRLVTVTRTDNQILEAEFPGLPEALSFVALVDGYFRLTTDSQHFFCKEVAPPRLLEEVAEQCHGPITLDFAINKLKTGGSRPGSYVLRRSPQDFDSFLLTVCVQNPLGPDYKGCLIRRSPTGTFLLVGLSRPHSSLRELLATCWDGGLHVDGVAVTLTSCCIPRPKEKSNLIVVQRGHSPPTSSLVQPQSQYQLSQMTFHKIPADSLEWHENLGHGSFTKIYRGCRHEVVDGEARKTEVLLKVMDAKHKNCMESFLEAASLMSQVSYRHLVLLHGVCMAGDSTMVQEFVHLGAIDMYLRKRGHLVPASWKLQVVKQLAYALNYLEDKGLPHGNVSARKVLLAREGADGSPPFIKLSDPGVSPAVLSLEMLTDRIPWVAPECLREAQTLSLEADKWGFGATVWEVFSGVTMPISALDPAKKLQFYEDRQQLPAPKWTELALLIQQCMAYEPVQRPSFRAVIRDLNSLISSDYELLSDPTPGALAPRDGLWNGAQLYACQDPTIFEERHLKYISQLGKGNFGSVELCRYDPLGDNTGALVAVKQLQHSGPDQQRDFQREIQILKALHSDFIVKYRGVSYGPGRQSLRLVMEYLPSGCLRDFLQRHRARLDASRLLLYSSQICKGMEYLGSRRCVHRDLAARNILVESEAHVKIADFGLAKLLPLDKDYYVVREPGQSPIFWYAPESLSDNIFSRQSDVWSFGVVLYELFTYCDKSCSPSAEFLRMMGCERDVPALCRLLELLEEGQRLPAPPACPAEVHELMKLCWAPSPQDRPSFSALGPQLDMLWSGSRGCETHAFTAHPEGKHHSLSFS
Assay: JAK Caliper Enzyme Assay at 1 mM ATP
Assay type: biochemical
Experimental: Test article was solubilized in dimethyl sulfoxide (DMSO) to a stock concentration of 30 mM. An 11-point half log dilution series was created in DMSO with a top concentration of 600 μM. […] Test article and assay controls were added to a 384-well plate. […] Enzyme concentrations and incubation times were optimized for each new enzyme preps and were modified slightly over time to ensure 20%-30% phosphorylation. […]
pIC50: −log10 of the molar value.
Parameter class (string): assigned from measured pIC50. Ranges: bucket A = under 6, bucket B = from 6 up to 7, bucket C = 7 and over

As a guide, the following entries are already answered.
C=CC(=O)N1CC[C@H](Oc2cnc3[nH]cc(C(=O)N[C@H](C)COC)c3n2)C1 [Example 54] :: bucket B
C=CC(=O)N1CCN(c2cnc3[nH]cc(C(=O)N[C@H](CO)C(CC)CC)c3n2)CC1(C)C [Example 137] :: bucket A
C=CC(=O)N1CC[C@@H](Nc2cnc3[nH]cc(C(=O)NCC)c3n2)[C@H](O)C1 (single isomer, unassigned) [Example 33] :: bucket C
C=CC(=O)N1CC[C@H](Nc2cnc3[nH]cc(C(=O)NCCC(F)(F)F)c3n2)[C@H](OC)C1 [Example 305] :: bucket C
C=CC(=O)N1CC[C@@H](OC)[C@@H](Nc2cnc3[nH]cc(C(=O)N[C@H](C)COC)c3n2)C1 (single isomer, unassigned) [Example 5] :: bucket C

Problem: Tag the class for C=CC(=O)N1CC[C@@H](Oc2cnc3[nH]cc(C(=O)NCC)c3n2)[C@H](C)C1 (racemic) [Example 46]
Result: bucket B

Problem: Also C=CC(=O)N1CCC(Oc2cnc3[nH]cc(C(=O)N[C@H]4CC[C@@H](F)C4)c3c2)CC1 [Example 344] , if possible.
Result: bucket A

Problem: Also C=CC(=O)N1CC[C@@H](Nc2cnc3[nH]cc(C(=O)NCC)c3n2)C[C@@H]1C (single isomer, unassigned) [Example 42] , if possible.
Result: bucket C

###

test: Stability of JAK3 Covalent Inhibitors in Human Whole Blood; format: in vitro ADME; conditions: both sexes, 1 μM test compound, 37° C., 180 min incubation, read-out: Human blood stability t1/2
Measured Quantity: half-life at 1 μM

C=CC(=O)N1CCN(c2cnc3[nH]cc(C(=O)N[C@H](CC)CC#N)c3n2)C[C@@H]1CC(C)C :: 3.12 h

Problem: # get_value(readout='half-life at 1 μM', item= C=CC(=O)N1CCC(Oc2cnc3[nH]cc(C(=O)NC4CCCC4)c3n2)CC1 (racemic) )
Result: > 6 h

Problem: Also C=CC(=O)N1C[C@@H](Nc2cnc3[nH]cc(C(=O)N[C@H](C)COC)c3n2)CC[C@H]1C (racemic) [Example 68] , if possible.
Result: > 6 h

###

target: JAK3 enzyme (Homo sapiens, UniProt P52333); test: JAK Caliper Enzyme Assay at 4 μM ATP; format: biochemical
pIC50: −log10 of the molar value.
Label satisfied when pIC50 is at or above 9; otherwise label not satisfied.

C=CC(=O)N1CCN(c2cnc3[nH]cc(C(=O)N[C@H](C)COCc4ccccc4)c3n2)CC1(C)C :: not satisfied
C=CC(=O)N1CC[C@@H](Nc2cnc3[nH]cc(C(=O)N[C@H](C)COC)c3n2)[C@@H](OC)C1 :: satisfied
C=CC(=O)N1CCC(Nc2cnc3[nH]cc(C(=O)NCc4ccccc4F)c3n2)CC1 :: satisfied
C=CC(=O)N1CCC(Oc2cnc3[nH]cc(-c4ncnn4C)c3n2)CC1 :: not satisfied
C=CC(=O)N1CCC(Oc2cnc3[nH]cc(-c4nnc[nH]4)c3n2)CC1 :: not satisfied
C=CC(=O)N1CC[C@@H](COc2cnc3[nH]cc(C(=O)N[C@H](C)COC)c3n2)C1 (single isomer, unassigned) :: not satisfied
C=CC(=O)N1CCN(c2cnc3[nH]cc(C(=O)N[C@@H](CO)Cc4cccc(C#N)c4)c3n2)CC1(C)C :: not satisfied
C=CC(=O)N1CC(Nc2cnc3[nH]cc(C(=O)NCCCC(F)(F)F)c3n2)C2(CC2)C1 (centres unmarked) :: not satisfied

Problem: Record "C=CC(=O)N1CCN(c2cnc3[nH]cc(C(=O)N[C@@H](C)COC)c3n2)CC1" ; criterion: pIC50 no lower than 9. Met?
Result: satisfied

Problem: Also C=CC(=O)N1CC[C@H](Nc2cnc3[nH]cc(C(=O)NCC)c3n2)[C@@H](OC)C1 (single isomer, unassigned) , if possible.
Result: satisfied

Problem: Also "C=CC(=O)N1CCC(N(C)c2cnc3[nH]cc(C(=O)NCC)c3n2)CC1" , if possible.
Result: satisfied

Problem: Also "C=CC(=O)N1CCC(Oc2cnc3[nH]cc(-c4ncn(CC)n4)c3n2)CC1" , if possible.
Result: not satisfied

Problem: Also "C=CC(=O)N1CC[C@@H](Nc2cnc3[nH]cc(C(=O)NC[C@H](C)CC(F)(F)F)c3n2)[C@@H](OC)C1" , if possible.
Result: satisfied

Problem: Also "C=CC(=O)N1CCC(Nc2cnc3[nH]cc(C(=O)NCc4cccc(F)c4)c3n2)CC1" , if possible.
Result: satisfied

Problem: Also "C=CC(=O)N1CCN(c2cnc3[nH]cc(C(=O)N[C@@H]4CCO[C@H]4C)c3n2)CC1(C)C" , if possible.
Result: not satisfied

Problem: Also "C=CC(=O)N1CCC(Nc2cnc3[nH]cc(C(=O)NCCc4nc5ccc(F)c(F)c5o4)c3n2)CC1" , if possible.
Result: not satisfied

Problem: Also C=CC(=O)N1CCC(Oc2cnc3[nH]cc(C(=O)NC(CC)C4(O)CCC4)c3n2)CC1 (racemic) , if possible.
Result: not satisfied

Problem: Also C=CC(=O)N1CC[C@H](Nc2cnc3[nH]cc(C(=O)NCC)c3n2)[C@@H](O)C1 (racemic) [Example 31] , if possible.
Result: satisfied

Problem: Also "C=CC(=O)N1CCC(N(C)c2cnc3[nH]cc(C(=O)NC(C)C)c3n2)CC1" , if possible.
Result: satisfied

###

Form field: IC50 (one value per entry).
Biological target: JAK3 enzyme (Homo sapiens)
Sequence (P52333 1-1124): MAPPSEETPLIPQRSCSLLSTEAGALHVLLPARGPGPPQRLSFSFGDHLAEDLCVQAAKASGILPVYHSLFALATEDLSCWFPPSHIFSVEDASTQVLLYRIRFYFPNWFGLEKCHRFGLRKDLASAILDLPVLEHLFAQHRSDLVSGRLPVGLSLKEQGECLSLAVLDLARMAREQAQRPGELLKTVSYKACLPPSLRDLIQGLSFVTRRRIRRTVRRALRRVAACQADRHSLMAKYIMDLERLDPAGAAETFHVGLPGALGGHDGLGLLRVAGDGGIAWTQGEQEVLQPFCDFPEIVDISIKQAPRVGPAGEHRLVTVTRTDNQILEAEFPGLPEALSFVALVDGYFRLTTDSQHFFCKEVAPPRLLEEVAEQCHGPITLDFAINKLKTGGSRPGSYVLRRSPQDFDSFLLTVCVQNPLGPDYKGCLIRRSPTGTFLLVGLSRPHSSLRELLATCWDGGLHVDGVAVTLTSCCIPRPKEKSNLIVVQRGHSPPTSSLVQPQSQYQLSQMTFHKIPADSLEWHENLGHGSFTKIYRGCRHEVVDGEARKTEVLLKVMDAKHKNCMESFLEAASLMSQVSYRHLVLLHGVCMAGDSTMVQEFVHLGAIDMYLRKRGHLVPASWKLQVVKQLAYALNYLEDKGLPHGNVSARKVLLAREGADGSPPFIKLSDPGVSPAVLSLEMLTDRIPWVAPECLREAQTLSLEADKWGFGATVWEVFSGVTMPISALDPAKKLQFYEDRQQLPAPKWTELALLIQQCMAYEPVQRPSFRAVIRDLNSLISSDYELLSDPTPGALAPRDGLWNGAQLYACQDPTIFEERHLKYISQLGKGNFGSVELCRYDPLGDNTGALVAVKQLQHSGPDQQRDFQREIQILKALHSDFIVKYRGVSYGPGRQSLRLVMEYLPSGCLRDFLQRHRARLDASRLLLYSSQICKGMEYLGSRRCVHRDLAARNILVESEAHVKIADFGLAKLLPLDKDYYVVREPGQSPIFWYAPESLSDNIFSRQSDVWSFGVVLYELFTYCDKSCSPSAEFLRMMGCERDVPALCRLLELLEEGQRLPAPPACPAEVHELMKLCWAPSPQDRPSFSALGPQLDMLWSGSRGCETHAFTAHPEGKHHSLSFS
Experiment: JAK Caliper Enzyme Assay at 4 μM ATP
Type: biochemical

Reference set (4 entries):
C=CC(=O)N1CCN(c2cnc3[nH]cc(C(=O)NCC(C)C)c3n2)C[C@@H]1CC(C)C [Example 288] :: 0.376 nM
C=CC(=O)N1CC[C@@H](Nc2cnc3[nH]cc(C(=O)NCC(C)(C)C)c3n2)[C@@H](OC)C1 [Example 300] :: 0.69 nM
C=CC(=O)N1CCC(Oc2cnc3[nH]cc(C(=O)NCCOC)c3n2)CC1 [Example 211] :: 0.5 nM
C=CC(=O)N1CCCC(Nc2cnc3[nH]cc(C(=O)NCC)c3n2)C1 (single isomer, unassigned) [Example 35] :: 6.77 nM

Problem: # get_value(readout='IC50', item= C=CC(=O)N1CC[C@@H](Nc2cnc3[nH]cc(C(=O)NCC(F)(F)F)c3n2)[C@@H](OC)C1 [Example 317] )
Result: 0.979 nM

Problem: Also C=CC(=O)N1CC[C@@H](Nc2cnc3[nH]cc(C(=O)NCC)c3n2)C1 [Example 234] , if possible.
Result: 17.9 nM
